# Tested on: Mus musculus
# procedureSummary: Percent injected radioactivity was determined in urine after intravenous administration into the tail vein of male swiss albino mice after 60 min
# Type: ADME, organism-based
# Set-up: concentration or dose not given beside the values
# conditionInfo: in vivo, 1 h
propertyLabel: Radioactivity (%)

CCSCCN(CC(=O)O)CC(=O)O    34.1

a. O=C(O)CN(CCS)CC(=O)O
b. CCCCSCCN(CC(=O)O)CC(=O)O
Enquiry: I need your help: which of the pair a , b has higher Radioactivity? Refer to your chosen item by its label in the answer.
Return: a

a. O=C(O)CN(CCSSCCN(CC(=O)O)CC(=O)O)CC(=O)O
b. O=C(O)CN(CCSc1ccc2ccccc2c1)CC(=O)O
c. O=C(O)C(S)C(S)C(=O)O (centres undefined)
Enquiry: Please give the order of these compounds when sorted by Radioactivity, largest value leading. I'd appreciate it if you listed the labels in the requested order.
Return: a, c, b

* * *

# procedureSummary: Acidity constant pK2 was measured
# Format: ADME
# conditionInfo: read-out: pK2
propertyLabel: pKa

Cl.O=C(O)CNCCS    8.5
O=C(O)CN(CCS)CCN(CCS)CC(=O)O    9
O=C(O)CN(CCS)CC(=O)O    7.7

* * *

# System: Mus musculus
# procedureSummary: Percent injected radioactivity was determined in intestine after intravenous administration into the tail vein of male swiss albino mice, after 60 min
# Format: ADME, organism-based
# conditionInfo: in vivo, 1 h
propertyLabel: Radioactivity (%)

CCCCSCCN(CC(=O)O)CC(=O)O    52.4
O=C(O)CN(CCSc1ccc2ccccc2c1)CC(=O)O    51.3
O=C(O)CN(CCS)CC(=O)O    4.743
O=C(O)C(S)C(S)C(=O)O (centres undefined)    5.693
CCSCCN(CC(=O)O)CC(=O)O    25.533
Cl.O=C(O)CNCCS    16.702

1. O=C(O)CN(CCSCc1ccccc1)CC(=O)O
2. O=C(O)CN(CCSSCCN(CC(=O)O)CC(=O)O)CC(=O)O
Enquiry: Consider entries 1 and 2 . Which has the numerically lower Radioactivity? Refer to your chosen item by its label in the answer.
Return: 2
(2: 8.9%, 1: 58.02%)

* * *

# Test system: Mus musculus
# procedureSummary: Percent injected radioactivity was determined in muscle after intravenous administration into the tail vein of male swiss albino mice after 60 min
# Assay type: ADME, organism-based, Muscle tissue
# Design: concentration or dose not given beside the values
# conditionInfo: in vivo, 1 h
propertyLabel: Radioactivity (%)

Answered cases to consult:
Cl.O=C(O)CNCCS    6.988
CCCCSCCN(CC(=O)O)CC(=O)O    4.013
O=C(O)CN(CCSc1ccc2ccccc2c1)CC(=O)O    5.254
O=C(O)CN(CCS)CCN(CCS)CC(=O)O    3.472
O=C(O)CN(CCS)CC(=O)O    7.553
O=C(O)CN(CCSSCCN(CC(=O)O)CC(=O)O)CC(=O)O    7.97
O=C(O)CN(CCSCc1ccccc1)CC(=O)O    3.32

A. CCSCCN(CC(=O)O)CC(=O)O
B. O=C(O)C(S)C(S)C(=O)O (centres undefined)
Enquiry: Consider entries A and B . Which has the numerically lower Radioactivity? Refer to your chosen item by its label in the answer.
Return: A
(A: 3.56%, B: 24.17%)

* * *

# Tested on: Mus musculus
# procedureSummary: Percent injected radioactivity was determined in liver and gallbladder after intravenous administration into the tail vein of male swiss albino mice after 60 min
# Type: ADME, organism-based
# Set-up: concentration or dose not given beside the values
# conditionInfo: in vivo, 1 h
propertyLabel: Radioactivity (%)

CCCCSCCN(CC(=O)O)CC(=O)O    12.7
O=C(O)C(S)C(S)C(=O)O (centres undefined)    12.617
O=C(O)CN(CCS)CC(=O)O    1.92

I. O=C(O)CN(CCSSCCN(CC(=O)O)CC(=O)O)CC(=O)O
II. Cl.O=C(O)CNCCS
III. CCSCCN(CC(=O)O)CC(=O)O
IV. O=C(O)CN(CCSc1ccc2ccccc2c1)CC(=O)O
Enquiry: Put the molecules in ascending order of Radioactivity. I'd appreciate it if you listed the labels in the requested order.
Return: I, II, III, IV

P. O=C(O)CN(CCS)CCN(CCS)CC(=O)O
Q. O=C(O)CN(CCSCc1ccccc1)CC(=O)O
Enquiry: Consider entries P and Q . Which has the numerically lower Radioactivity? Refer to your chosen item by its label in the answer.
Return: P

* * *

# Test system: Mus musculus
# procedureSummary: Percent injected radioactivity was determined in kidney after intravenous administration into the tail vein of male swiss albino mice after 60 min
# Format: ADME, organism-based
# conditionInfo: in vivo, 1 h
propertyLabel: Radioactivity (%)

O=C(O)CN(CCSSCCN(CC(=O)O)CC(=O)O)CC(=O)O    4.24
CCCCSCCN(CC(=O)O)CC(=O)O    2.767
Cl.O=C(O)CNCCS    5.318
O=C(O)CN(CCS)CCN(CCS)CC(=O)O    5.62
O=C(O)CN(CCSCc1ccccc1)CC(=O)O    2.083
O=C(O)CN(CCS)CC(=O)O    5.677
O=C(O)CN(CCSc1ccc2ccccc2c1)CC(=O)O    1.842

P. O=C(O)C(S)C(S)C(=O)O (centres undefined)
Q. CCSCCN(CC(=O)O)CC(=O)O
Enquiry: I need your help: which of the pair P , Q has higher Radioactivity? Refer to your chosen item by its label in the answer.
Return: P

* * *

# procedureSummary: Acidity constant pK1 was measured
# Type: ADME
# conditionInfo: read-out: pK1
propertyLabel: pKa

Answered cases to consult:
O=C(O)CN(CCSSCCN(CC(=O)O)CC(=O)O)CC(=O)O    2.3
O=C(O)CN(CCS)CC(=O)O    1.9
Cl.O=C(O)CNCCS    2.6

1. O=C(O)CN(CCSCc1ccccc1)CC(=O)O
2. O=C(O)CN(CCS)CCN(CCS)CC(=O)O
Enquiry: Consider entries 1 and 2 . Which has the numerically lower pKa? Refer to your chosen item by its label in the answer.
Return: 2

* * *

# procedureSummary: Acidity constant pK3 was measured
# Format: ADME
# conditionInfo: read-out: pK3
propertyLabel: pKa

Cl.O=C(O)CNCCS    11.6
O=C(O)CN(CCSSCCN(CC(=O)O)CC(=O)O)CC(=O)O    9.2
O=C(O)CN(CCSCc1ccccc1)CC(=O)O    9.1
O=C(O)CN(CCS)CCN(CCS)CC(=O)O    11.6
O=C(O)CN(CCS)CC(=O)O    10.6

* * *

# Test system: Mus musculus
# procedureSummary: Percent injected radioactivity was determined in blood after intravenous administration into the tail vein of male swiss albino mice after 60 min
# Format: ADME, organism-based
# conditionInfo: in vivo, 1 h
propertyLabel: Radioactivity (%)

O=C(O)CN(CCSSCCN(CC(=O)O)CC(=O)O)CC(=O)O    4.64
CCCCSCCN(CC(=O)O)CC(=O)O    2.8
CCSCCN(CC(=O)O)CC(=O)O    4.55
O=C(O)CN(CCS)CC(=O)O    3.598
O=C(O)CN(CCSCc1ccccc1)CC(=O)O    2.627

a. O=C(O)CN(CCS)CCN(CCS)CC(=O)O
b. O=C(O)C(S)C(S)C(=O)O (centres undefined)
Enquiry: I need your help: which of the pair a , b has higher Radioactivity? Refer to your chosen item by its label in the answer.
Return: b
(b: 18.873%, a: 3.46%)

* * *

# System: Mus musculus
# procedureSummary: Percent injected radioactivity was determined in urine after intravenous administration into the tail vein of male swiss albino mice after 60 min
# Type: ADME, organism-based
# Design: concentration or dose not given beside the values
# conditionInfo: in vivo, 1 h
propertyLabel: Radioactivity (%)

O=C(O)CN(CCS)CCN(CCS)CC(=O)O    39.5

a. Cl.O=C(O)CNCCS
b. O=C(O)CN(CCSCc1ccccc1)CC(=O)O
Enquiry: I need your help: which of the pair a , b has higher Radioactivity? Refer to your chosen item by its label in the answer.
Return: a
(a: 36.323%, b: 11.371%)

The measured values listed here are drawn from ChEMBL document CHEMBL1121974.
